- tested_on: T1, human monocyte chemo-attractant protein-1 (MCP-1) (human, UniProt P13500 24-99)
- T1 construct: 76-residue recombinant protein from E. coli, bought (PeproTech); also called hMCP-1(MCAF); human MCP-1
- test_description: ELISA, coated antigen; ELISA, purified clone 1:50 on coated hMCP-1 (2 ug/mL), cross-reactivity panel
Provide the recorded ELISA OD for the entries that follow.
Your answer should be a plain number; it is taken to be in OD450.

Given item anti-MCP-1 mAb 3.5.1 (antibody, V domains shown) VH: QVQLVQSGAEVKKPGASVKVSCKVSGYTLSELSMHWVRQAPGKGLEWMGGFDPEDDETIYAQKFQGRVTMTEDTSTDTAFMELSSLRSEDTAVYYCATHDFWSGYFHYWGQGTLVTVSS VL: DIVMTQSPDSLAVSLGERATINCKSSQSVLYSSDNKSYLVWYQQKPGQPPKVLIYWASIRESGVPDRFSGSGSGTDFTLTISSLQAEDVAVYYCQQYYTSPWTFGQGTKVEIKR , the value recorded as its ELISA OD is 0.194

Given item anti-MCP-1 mAb 2.4.1 (antibody, V domains shown) VH: QVQLVQSGAEVKKPGASVKVSCKASGYTFTGYYLHWVRQAPGQGLEWMGWINPYNDGTNYAQKFQGRVTMTRDTSISTAYMELSRLRSDDTAVYYCARDIAAAGAVYFDYWGQGTLVTVSS VL: DIQMTQSPSSLSASVGDRVTITCQASQDITTYLNWYQQKPGKAPKLLIYDASNLETGVPSRFSGSGSGTDFTFTISSLQPEDIATYYCQQYDNLPITFGQGTRLEIKR , the value recorded as its ELISA OD is 0.462

Given item anti-MCP-1 mAb 3.11.1 (antibody, human IgG4, kappa, V domains shown) VH: QVQLQESGPGLVKPSQTLSLTCTVSGGSISSGGNYWNWIRQHPGKGLEWIGYIYYSGNTYYNPSLKSRITISIDTSKNQFSLTLSSVTAADTAVYYCARDGGDDAFDIWGQGTMVTVSS VL: DIQMTQSPSSLSASVGDRVTITCQASQDISNYLNWYQQKPGKAPKLLIYDASNLETGVPSRFSGSGSGTDFTFTINSLQPEDIATYYCQEYNNLPYSFGQGTKLEIKR , the value recorded as its ELISA OD is 0.803

Given item anti-MCP-1 mAb 5.3.1 (antibody, V domains shown) VH: QVQLVQSGAEVKKPGASVKVSCKVSGYTLSELSMHWVRQAPGKGLEWMGGFDPEDGETIYAQKFQGRVTMTEDTSTDTAYMELSSLRSEDTAVFYCATKREYSGYFDYWGQGTLVTVSS VL: DIVMTQSPDSLAVSLGERATINCKSSQSVLYSSNSKNYLAWFQQKPGQPPKLLIYWASTRESGVPDRFSGSGSGTDFTLTISRLQAEDVAVYSCQQYFITPWTFGQGTKVELKR , the value recorded as its ELISA OD is 0.272

All values here come from patent US20050058639A1.
